// molecules with reported IC50 on Fatty-acid amide hydrolase 1 (Mus musculus, UniProt O08914), multi-publication
Supply the numeric figure in nM, leaving out any unit text.

Form entry - test system: Fatty-acid amide hydrolase 1 (Mus musculus, UniProt O08914); read-out: IC50; molecule: `O=C(OCc1nccs1)N1CCC(CCOc2ccc(C3CCCC3)cc2)CC1` 14

Let us now turn to `CNC(=O)COC(=O)N1CCN(c2ccc(-c3ccc(OC(F)(F)F)cc3)cc2)CC1` 7

Let us now turn to `CNC(=O)COC(=O)N1CCN(c2ccc(-c3cccc(C(F)(F)F)c3)cn2)CC1` 290

Let us now turn to `NC(=O)c1cc(COC(=O)N2CCC(CCOc3ccc(OC(F)(F)F)cc3)CC2)on1` 350

Let us now turn to `NC(=O)c1cc(COC(=O)NCC2CC3(CCN(c4ccc5cc(F)ccc5n4)CC3)C2)on1` 0.25

Let us now turn to `CNC(=O)COC(=O)NCCc1ccc(-c2ccc(Cl)cc2Cl)cc1` 140

Let us now turn to `O=C(CCCCCCc1ccccc1)c1ncc(-c2cccs2)o1` 800
